Taken from PubChem BioAssay AID624167.

# System: PEG-3 (UniProt Q6IN02)
# Sequence (Q6IN02 whole entry, looked up): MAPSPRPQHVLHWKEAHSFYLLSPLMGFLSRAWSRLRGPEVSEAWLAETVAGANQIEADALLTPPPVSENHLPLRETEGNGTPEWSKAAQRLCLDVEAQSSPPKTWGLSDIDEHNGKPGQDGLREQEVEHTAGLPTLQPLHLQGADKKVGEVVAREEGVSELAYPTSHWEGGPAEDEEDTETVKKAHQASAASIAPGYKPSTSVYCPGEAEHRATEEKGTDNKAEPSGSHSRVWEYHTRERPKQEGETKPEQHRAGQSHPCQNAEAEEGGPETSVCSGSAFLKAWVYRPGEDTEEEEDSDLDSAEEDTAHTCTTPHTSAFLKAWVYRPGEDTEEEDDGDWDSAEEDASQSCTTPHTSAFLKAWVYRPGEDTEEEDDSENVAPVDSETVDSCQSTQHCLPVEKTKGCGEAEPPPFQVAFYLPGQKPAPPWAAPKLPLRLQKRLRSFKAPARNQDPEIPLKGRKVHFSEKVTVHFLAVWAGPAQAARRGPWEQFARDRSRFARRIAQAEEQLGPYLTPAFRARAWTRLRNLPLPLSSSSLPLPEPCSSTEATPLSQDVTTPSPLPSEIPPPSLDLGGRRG
# Experiment: Peg3 promoter luciferase inhibitors, potency, dose response, cell-based, HeLa, CREF/GAPDH counter-screen panel (AID 624167)
# Condition set: HeLa PEG-Prom luciferase reporter, overnight, CREF/GAPDH counter-screens, mean of runs
Active and inactive are the calls of the source.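 The calls were made as follows: active = mean IC50 for reducing PEG3 promoter reporter signal at or below a set limit, with IC50 above the limit in both counter screens; inactive = the rest, including counter screen hits.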
Pick from active, inactive when you respond.

Here are 5 molecules together with their reported answers.
# Molecule, Assigned label
data = [
    ("COc1cccc(-c2sc3ccc(OC)cc3c2-c2ccc(OCCN(C)C)cc2)c1", "active"),
    ("CC(C)c1ccc(NC(=O)Nc2nc(C(C)N)cs2)cc1 (stereo unspecified)", "active"),
    ("COc1cc(N=Nc2c(O)c3ccccc3[nH]c2=O)c(OC)cc1N=Nc1ccccc1", "inactive"),
    ("Cc1ccc2oc(/N=C(\\N)NC(=O)C(C)(C)C)nc2c1", "inactive"),
    ("CCOC(=O)c1c(SCCN2CCCCC2)n(-c2ccccc2)c(=S)n(-c2ccccc2)c1=O", "active"),
]

# fetch the recorded call for COc1ccc(C(O)(CCC(C)C)C(CN2CCOCC2)c2ccccc2)cc1 (stereo unspecified) here
inactive

# fetch the recorded call for COC(=O)C1=C(C)N(Cc2ccccc2)C(=NCc2cccc(Cl)c2)N[C@H]1c1ccccc1 here
active

# fetch the recorded call for CN(C)c1ccc(Nc2nc(N)c3ccccc3n2)cc1 here
active

# fetch the recorded call for CC1=CC2C(C(O)CC3(C)C2CC(C)C32OCOC23COCO3)C2(C)C/C(=C\O)C(=O)C=C12 (stereo unspecified) here
active

====

Give pIC50 for every item shown.
# System: Rat fibroblasts (CREF)
# Experiment: Peg3 promoter luciferase inhibitors, potency, dose response, cell-based, HeLa, CREF/GAPDH counter-screen panel (AID 624167)
# Condition set: CREF/GAPDH counter-screens, run 2, dose range 1, individual replicate IC50 per panel
Numbers only, as −log10 of the molar value.

Batch request: pIC50 for each of the following molecules.
1. CCOC(=O)c1cnc(Nc2nc3ccccc3o2)nc1C
2. CC1=NOC(=O)/C1=C\c1ccc(-c2ccccc2Br)o1
3. Cc1ccc(-c2cc3c(N=O)c4ccccc4c-3n[nH]2)cc1

1: 5.86; 2: 4.12; 3: 4.46

Batch request: pIC50 for each of the following molecules.
1. O=C(Nc1ccccn1)c1cc2ccccc2o1
2. O=C(CN1C(=O)c2ccccc2S1(=O)=O)c1ccc2c(c1)OCCCO2

1. 5.64
2. 5.83

====

# System: PEG-3 (UniProt Q6IN02)
# Experiment: Peg3 promoter luciferase inhibitors, potency, dose response, cell-based, HeLa, CREF/GAPDH counter-screen panel (AID 624167)
# Condition set: HeLa PEG-Prom luciferase reporter, overnight, CREF/GAPDH counter-screens, mean of runs
Active and inactive are the calls of the source.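 How the source made its calls: active means mean IC50 for reducing PEG3 promoter reporter signal at or below a set limit, with IC50 above the limit in both counter screens; inactive means the rest, including counter screen hits.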
Pick from t for active, f for inactive when you respond.

Here are 2 molecules together with their reported answers.
# Chemical structure, Assigned label
records = [
    ("O=C(CCl)Nc1cccc(-c2cnc3ccccc3n2)c1", "f"),
    ("O=C(Nc1nc2cc3c(cc2s1)OCCO3)c1ccco1", "t"),
]

# fetch the recorded call for OCCNc1c2ccccc2nc2ccccc12 here
t

# fetch the recorded call for Cc1c([N+](=O)[O-])cc(N2C(=O)C=CC2=O)cc1[N+](=O)[O-] here
t

# fetch the recorded call for O=C(Nc1ccc(N2CCOCC2)cc1)c1cnsn1 here
t

# fetch the recorded call for CC(=O)c1c(NCCc2ccccc2)nc(=S)n(-c2ccccc2)c1C here
t

====

# Tested on: Rat fibroblasts (CREF)
# Experiment: Peg3 promoter luciferase inhibitors, potency, dose response, cell-based, HeLa, CREF/GAPDH counter-screen panel (AID 624167)
# Condition set: CREF/GAPDH counter-screens, mean of runs
Activity calls are given as the source filed them.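 How the source made its calls: active means mean IC50 for reducing PEG3 promoter reporter signal at or below a set limit, with IC50 above the limit in both counter screens; inactive means the rest, including counter screen hits.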
Give IC50 for every item shown.

# Compound, System, IC50
records = [
    ("Cc1ccc(-c2nc(-c3ccccn3)no2)cc1", "Rat fibroblasts (CREF)", "480 nM"),
    ("C=Cc1cc(OC)c2c(c1)c(=O)oc1c2cc(OC)c2c(O)ccc(C3OC(C)C(O)C(C)(O)C3O)c21 (centres undefined)", "Rat fibroblasts (CREF)", "> 100000 nM (inactive)"),
    ("C(=N\\Nc1nc2ccccc2[nH]1)/c1ccccn1", "Rat fibroblasts (CREF)", "1480 nM"),
    ("Clc1cccc(-c2nc(-c3ccccn3)no2)c1", "Rat fibroblasts (CREF)", "2230 nM"),
    ("CC(C)Cc1ccc(C(C)C(N)=NCCc2ccccc2)cc1 (centres undefined)", "Rat fibroblasts (CREF)", "13300 nM"),
    ("COc1cc(SC)ccc1C(=O)Nc1ncc(C)s1", "Rat fibroblasts (CREF)", "1940 nM"),
    ("Cc1cc(C)c2sc(NNC(=O)c3ccc(S(=O)(=O)N4CCc5ccccc5C4)cc3)nc2c1", "Rat fibroblasts (CREF)", "> 100000 nM (inactive)"),
    ("O=C(CNc1ccccc1)N/N=C/c1c(O)ccc2ccccc12", "Rat fibroblasts (CREF)", "51100 nM (inactive)"),
]

# context switch: different compound, same IC50
For CN1CCN(c2ccc(-c3ccc4ccccc4n3)cc2)CC1 the compound record lists IC50 as 2360 nM

====

# System: PEG-3 (UniProt Q6IN02)
# Experiment: Peg3 promoter luciferase inhibitors, potency, dose response, cell-based, HeLa, CREF/GAPDH counter-screen panel (AID 624167)
# Condition set: HeLa PEG-Prom luciferase reporter, overnight, CREF/GAPDH counter-screens, mean of runs
Active and inactive are the calls of the source.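 How the source made its calls: active means mean IC50 for reducing PEG3 promoter reporter signal at or below a set limit, with IC50 above the limit in both counter screens; inactive means the rest, including counter screen hits.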
Metric: IC50

Reference set, count: 6
# Compound, System, Metric, Result
data = [
    ("CC(=O)Nc1cccc(-c2cc(NC=O)c3ncc(-c4ccc(C(C)=O)cc4)n3c2)c1", "PEG-3 (UniProt Q6IN02)", "IC50", "inactive"),
    ("COc1ccc(-c2cc(-c3ccc(F)cc3)nc(N3CCN(C)CC3)n2)cc1", "PEG-3 (UniProt Q6IN02)", "IC50", "inactive"),
    ("O=C(N/N=C/c1cc([N+](=O)[O-])ccc1O)c1ccc(COc2ccc3c(c2)CCC3)o1", "PEG-3 (UniProt Q6IN02)", "IC50", "9.2 µM"),
    ("Cc1ccc(/C=C2\\SC(=S)N(CCCC(=O)Nc3ccccn3)C2=O)cc1", "PEG-3 (UniProt Q6IN02)", "IC50", "1.9 µM"),
    ("CCN(CC)C(=O)Cn1cc(/C=C2\\C(=O)NC(=O)N(c3ccccc3F)C2=O)c2ccccc21", "PEG-3 (UniProt Q6IN02)", "IC50", "14 µM"),
    ("CC1CC(C)C(=O)C(C(CC2CC(=O)NC(=O)C2)OC(=O)CC(=O)c2ccccc2)C1 (configuration not stated)", "PEG-3 (UniProt Q6IN02)", "IC50", "1.16 µM"),
]

Batch request: IC50 for each of the following compounds.
1. Cc1cc(C)nc(NC(=O)c2c(F)c(F)c(F)c(C(=O)Nc3cc(C)cc(C)n3)c2F)c1
2. COc1cccc(N2CCN(CC(=O)Nc3ccccc3C(=O)NCc3ccccc3)CC2)c1
3. CN(C)C(=O)c1cccc(-c2cnc3c(NC=O)cc(-c4cccc(C(F)(F)F)c4)cn23)c1

1: 19.8 µM; 2: inactive; 3: 16 µM

Batch request: IC50 for each of the following compounds.
1. CC1CCCCN1CCNC(=O)c1ccc2c(=O)n(Cc3ccc(Cl)cc3)c(=S)[nH]c2c1 (configuration not stated)
2. COC(=O)c1nn(-c2ccc3c(c2)CCN3C(C)=O)cc1O
3. N=c1n(CCN2CCCCC2)c2ccccc2n1CC(O)c1ccc(Cl)c(Cl)c1 (configuration not stated)
4. N#C/C(=C\c1cccc([N+](=O)[O-])c1)C(=O)NCc1ccc(Cl)cc1
5. Cc1nc(N2CCN(c3ccccc3O)CC2)c2c(-c3ccccc3)csc2n1
6. COC1=C(Br)C(=O)c2ncccc2C1=O

1: inactive; 2: 4.81 µM; 3: 9.46 µM; 4: 14 µM; 5: inactive; 6: 6.65 µM

Batch request: IC50 for each of the following compounds.
1. COCCn1c(C)cc(C(=O)COC(=O)c2cccc(O)c2)c1C
2. COc1ccc(C23CC4CC(CC(C4)C2)C3)cc1C(=O)NCCN(C)C

["10.8 µM", "inactive"]

Batch request: IC50 for each of the following compounds.
1. Cc1ccc(N2CC(C(=O)Nc3nccs3)CC2=O)cc1Cl (configuration not stated)
2. Cc1cc(C)cc(NC(=O)Cn2c(=O)oc3cc(S(=O)(=O)N4CCC(C)CC4)ccc32)c1
3. Cc1csc(NC(=O)c2cn3ccccc3n2)n1
4. CCCC(=O)NC(c1cccc([N+](=O)[O-])c1)c1ccc2cccnc2c1O (configuration not stated)
5. O=C(Sc1cccc2cccnc12)c1ccccc1Br

["inactive", "inactive", "4.15 µM", "11.1 µM", "13.4 µM"]
